tested on: recombinant human NAMPT (Homo sapiens, UniProt P43490)
Construct: His tag (N); made in house; host or cells: E. coli BL21-CodonPlus (DE3)-RIL, pET21a+ vector
Sequence (P43490 whole entry): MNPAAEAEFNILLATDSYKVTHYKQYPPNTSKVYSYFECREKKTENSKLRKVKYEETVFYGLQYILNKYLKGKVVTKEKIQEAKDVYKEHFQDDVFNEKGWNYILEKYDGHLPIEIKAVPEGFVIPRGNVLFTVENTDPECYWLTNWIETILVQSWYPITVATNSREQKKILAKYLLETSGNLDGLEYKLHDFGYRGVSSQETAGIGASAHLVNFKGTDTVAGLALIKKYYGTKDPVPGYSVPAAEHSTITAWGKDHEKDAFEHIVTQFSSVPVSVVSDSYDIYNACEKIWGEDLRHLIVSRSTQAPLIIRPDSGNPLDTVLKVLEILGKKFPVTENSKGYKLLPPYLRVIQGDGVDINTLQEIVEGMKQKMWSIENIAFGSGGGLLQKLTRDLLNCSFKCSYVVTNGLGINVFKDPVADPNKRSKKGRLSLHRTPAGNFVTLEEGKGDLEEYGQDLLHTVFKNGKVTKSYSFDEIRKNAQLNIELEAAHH
protocol notes: HTS / fixed-concentration NAMPT activity screen (fluorometric)
Format: biochemical
experimental conditions: 20 μM compound; analogues of the 46 non-fluorescent inhibitors
assay metric: NAMPT inhibition activity at 20 μM

1) O=C(CSC1=Nc2ccccc2N=C(c2cccs2)C1)Nc1ccc2c(c1)OCCO2; Yes

---

What pIC50 was measured for each of the following?
tested on: recombinant human NAMPT (Homo sapiens)
Construct: His tag (N)
protocol notes: NAMPT activity assay, IC50 determination (fluorometric detection of NMN derivative)
experimental conditions: molecular/biochemical assay, read-out: IC50 (NAMPT inhibition)
Description: Using our previously established high throughput screening (HTS) platform and recombinant human NAMPT[14][15], we performed a HTS on a chemical library containing 30000 small-molecules (Chemdiv, CA, USA). Our HTS targeting NAMPT was developed based on a fluorometric method for NAMPT activity assay by measuring the fluorescence of nicotinamide mononucleotide (NMN) derivative resulting from the NAMPT enzymatic product NMN through simple chemical reactions (Fig. 1A). […]
# reply with the number alone; pIC50 is -log10 of concentration in mol/L

Exam item: I have this compound here, O=C(NCCCN1CCCC1=O)c1ccc(N2CCc3ccccc32)s1 , and I need its recorded pIC50.
Marked response: 6.39

Exam item: I have this compound here, CCn1c(=O)c(=O)n(Cc2ccc(C(=O)NCc3cccc(Cl)c3)cc2)c2cccnc21 , and I need its recorded pIC50.
Marked response: 6.00

Exam item: I have this compound here, Cc1ccccc1CCNC(=O)c1ccc(Cn2c(=O)c3cccn3c3cccnc32)cc1 , and I need its recorded pIC50.
Marked response: 6.60

Exam item: I have this compound here, CC(=O)C1=C(C)Nc2ccccc2S1 , and I need its recorded pIC50.
Marked response: 6.39

Exam item: I have this compound here, Cc1ccc(CNC(=O)c2ccc(Cn3c(=O)c4cccn4c4cccnc43)cc2)cc1 , and I need its recorded pIC50.
Marked response: 7.01

Exam item: I have this compound here, O=C(CSC1=Nc2ccccc2N=C(c2cccs2)C1)Nc1ccc2c(c1)OCCO2 , and I need its recorded pIC50.
Marked response: 6.76

Exam item: I have this compound here, CCc1ccc(NC(=O)NCc2noc3ccccc23)cc1 , and I need its recorded pIC50.
Marked response: 7.20

Exam item: I have this compound here, Cc1nn(CCCC(=O)Nc2cccc(F)c2)c(=O)c2c1sc1ccccc12 , and I need its recorded pIC50.
Marked response: 6.53

Exam item: I have this compound here, O=C(NCc1ccccc1)c1ccc(Cn2c(=O)c3cccn3c3cccnc32)cc1 , and I need its recorded pIC50.
Marked response: 6.85

Exam item: I have this compound here, O=C(NCc1ccc(Cl)cc1)c1ccc(CNc2c(N3CCCCC3)c(=O)c2=O)cc1 , and I need its recorded pIC50.
Marked response: 6.15

Exam item: I have this compound here, COc1ccc(NC(=O)NCc2noc3ccccc23)cc1Cl , and I need its recorded pIC50.
Marked response: 6.39

Exam item: I have this compound here, CN1C(=O)C(C)(C)c2cc(S(=O)(=O)NCc3ccc(C(=O)NCc4cccnc4)cc3)ccc21 , and I need its recorded pIC50.
Marked response: 6.93

Exam item: I have this compound here, CC1CCN(c2c(NCc3ccc(C(=O)NCCc4ccccc4)cc3)c(=O)c2=O)CC1 , and I need its recorded pIC50.
Marked response: 5.89

Exam item: I have this compound here, COc1ccc(-c2nnc(COc3ccc(NC(=O)c4cnccn4)cc3)o2)cc1 , and I need its recorded pIC50.
Marked response: 6.93

Exam item: I have this compound here, COc1ccc(CCNC(=O)NCc2noc3ccccc23)c(OC)c1 , and I need its recorded pIC50.
Marked response: 6.69

Exam item: I have this compound here, CC1CCN(c2c(NCc3ccc(C(=O)NCc4ccc(F)cc4)cc3)c(=O)c2=O)CC1 , and I need its recorded pIC50.
Marked response: 6.06

Exam item: I have this compound here, CCCn1c(=O)c(-c2ccc(C(=O)NCc3cccnc3)cc2)nc2ccccc21 , and I need its recorded pIC50.
Marked response: 6.77

Exam item: I have this compound here, O=C(CSC1=Nc2ccccc2N=C(c2ccccn2)C1)Nc1ccc2c(c1)OCCO2 , and I need its recorded pIC50.
Marked response: 5.84

Exam item: I have this compound here, CCn1c(=O)c(=O)n(Cc2ccc(C(=O)NCc3ccccc3F)cc2)c2cccnc21 , and I need its recorded pIC50.
Marked response: 5.84

Exam item: I have this compound here, CCCc1cc(Nc2ccc(C(=O)NCc3cccnc3)cc2)n2nc(-c3cccnc3)nc2n1 , and I need its recorded pIC50.
Marked response: 6.55

Exam item: I have this compound here, O=C(Nc1ccc(OCc2nnc(-c3ccccc3)o2)cc1)c1cnccn1 , and I need its recorded pIC50.
Marked response: 7.22

Exam item: I have this compound here, Cc1cc2nc(C)c(=O)n(Cc3ccc(C(=O)NCc4ccccn4)cc3)c2cc1C , and I need its recorded pIC50.
Marked response: 6.77

Exam item: I have this compound here, CSc1ccc(CCNC(=O)NCc2noc3ccccc23)cc1 , and I need its recorded pIC50.
Marked response: 6.90

Exam item: I have this compound here, CCn1c(=O)c(=O)n(Cc2ccc(C(=O)NCc3ccc(Cl)cc3)cc2)c2cccnc21 , and I need its recorded pIC50.
Marked response: 6.53

Exam item: I have this compound here, O=C(Nc1cccnc1)c1ccc(-n2cnnn2)cc1 , and I need its recorded pIC50.
Marked response: 6.38

Exam item: I have this compound here, Cc1cccc(CNC(=O)c2ccc(Cn3c(=O)c4cccn4c4cccnc43)cc2)c1 , and I need its recorded pIC50.
Marked response: 7.07

Exam item: I have this compound here, COc1ccc(OC)c(CCNC(=O)NCc2noc3ccccc23)c1 , and I need its recorded pIC50.
Marked response: 6.40

Exam item: I have this compound here, COc1ccc(NC(=O)NCc2noc3ccccc23)cc1 , and I need its recorded pIC50.
Marked response: 6.77

Exam item: I have this compound here, O=C(NCc1noc2ccccc12)NC1CCCCC1 , and I need its recorded pIC50.
Marked response: 5.79

Exam item: I have this compound here, Cc1ccccc1-c1nnc(COc2ccc(NC(=O)c3cnccn3)cc2)o1 , and I need its recorded pIC50.
Marked response: 7.22

Exam item: I have this compound here, CC(=O)c1cccc(NC(=O)NCc2noc3ccccc23)c1 , and I need its recorded pIC50.
Marked response: 6.60

Exam item: I have this compound here, CC(=O)c1ccc(NC(=O)Cc2noc3ccccc23)cc1 , and I need its recorded pIC50.
Marked response: 6.13

Exam item: I have this compound here, O=C(NCCc1ccccc1)c1ccc(Cn2c(=O)c3cccn3c3cccnc32)cc1 , and I need its recorded pIC50.
Marked response: 7.15

Exam item: I have this compound here, O=C(CSc1nc2c(c(C(F)(F)F)n1)CCc1ccccc1-2)NCCCn1ccnc1 , and I need its recorded pIC50.
Marked response: 7.23

Exam item: I have this compound here, CC(C)CCNC(=O)c1ccc(Cn2c(=O)c3cccn3c3cccnc32)cc1 , and I need its recorded pIC50.
Marked response: 6.41

Exam item: I have this compound here, COc1ccc(CNC(=O)c2ccc(Cn3c(=O)c4cccn4c4cccnc43)cc2)cc1 , and I need its recorded pIC50.
Marked response: 7.12

Exam item: I have this compound here, CCOC(=O)c1ccc(NC(=O)NCc2noc3ccccc23)cc1 , and I need its recorded pIC50.
Marked response: 7.06

Exam item: I have this compound here, CCn1c(=O)c(=O)n(Cc2ccc(C(=O)NCc3cccc(Br)c3)cc2)c2cccnc21 , and I need its recorded pIC50.
Marked response: 6.29
